# measuredOn: RPS6KA1 KD1 (human)
# assayDetails: KINOMEscan competition binding
# settings: compound 1.0 µM
metric: kinase still bound, per cent of control (%)
Answers are plain numbers, in %.

The cases that follow already have their kinase still bound, per cent of control on record.
smilesStr | kinase still bound, per cent of control (%)
CN(C)C/C=C/C(=O)Nc1cccc(C(=O)Nc2ccc(Nc3nccc(-c4c(-c5ccccc5)nn5ccccc45)n3)cc2)c1 | 100
CN(C)C/C=C/C(=O)Nc1cccc(C(=O)Nc2ccc(Nc3nccc(-c4cccnc4)n3)cc2)c1 | 100
Cc1cc(NC(=O)c2cccc(NC(=O)/C=C/CN(C)C)c2)ccc1Nc1nccc(-c2cccnc2)n1 | 99

Challenge: Please look at this compound and report its kinase still bound, per cent of control: CN(C)C/C=C/C(=O)Nc1cccc(C(=O)Nc2ccc(Nc3nccc(/C(C#N)=C4\Nc5ccccc5S4)n3)cc2)c1
Response given: 100
